Entry source: patent EP4644419A1

Target: T1, monkey antigen protein (monkey CD112R, Uniprot ID: A0A2K5WVV8) (monkey, UniProt A0A2K5WVV8 41-171)
T1 sequence: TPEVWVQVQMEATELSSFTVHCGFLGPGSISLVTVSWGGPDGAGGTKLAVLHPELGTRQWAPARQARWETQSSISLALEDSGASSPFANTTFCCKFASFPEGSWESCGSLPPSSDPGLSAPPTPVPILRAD
Experiment: ELISA, monkey antigen protein (as Example 6.1)
Measured EC50, listed per entry.
Dear colleague, please return just the value in nM, with no unit written.

Binder: C71 (antibody, human IgG1, kappa, V domains shown) VH: EVILVESGGGLVKPGGSRKLSCAASGFTFSSYFMSWVRQTPEKRLEWVATISGGGDNTYYPDSVKGRFTISRDNAKNTLYLQMSSLRSEDTALYYCARHEDYEWYAMDYWGQGTSVTVSS VL: QIVLTQSPAIMSTSPGEKVTMTCSASSSVSYIYWYQQKPGSSPRLLIYDTSNLASGVPVRFSGSGSGTSYSLTISRMEAEDAATYYCQQWTSYPLTFGAGTKLELKR
Measurement name: EC50
Value unit: nM
Observed measurement: 0.05
--
Binder: C1 (antibody, human IgG1, kappa, V domains shown) VH: QVHLQQSGPELVKPGASLKISCKASGYTFTDYYLNWVKQRPGQGLEWIGWIFPGSESTFYNEKFKGKATLTVDKSSSTAYMLLNSLTSEDSAVYFCTRDGGLRGPFDYWGQGTTLTVSS VL: DIQLTQSPSSLSASLGGKVTITCKASQDINKYIAWCQHKPGKGPRLLIHYTSTLHPGIPSRFSGSGSGRDYSFSISNLEPEDSATYYCLQYDYLLTFGGGTKLEIKR
Measurement name: EC50
Value unit: nM
Observed measurement: 0.116

// next entry
Input: Item C59 (antibody, human IgG1, kappa, V domains shown) VH: EVQLVESGGGLVKPGGSLKLSCAASGFTFSGYALSWVRQTPEKRLEWVATIRDGGSYTYYSDNEKGRFTISRDNAKNNLYLQMSHLKSEDTAMYYCTRDQVNRGWFTYWGQGTLVTVSA VL: QVILTQSPAIMSASLGERVTMTCSASSSVSSSYFHWFQQKPGSSPKLWIYSTSNLASGVPPRFSGSGSGTSYSLTISSMEAEDAATYYCHQHHRSPLTFGAGTKLELKR has what recorded EC50?
Output: 0.049
